# Test Summary: amyloid nucleation score (Sup35N fusion, yeast selection) (log enrichment); library NNK2; higher = more nucleation; inactive = no reads after selection;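 note: zero at mode of non-aggregating sequences after 7 days selection at 30°C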
Measurement Kind: amyloid nucleation score
Number only, please.

TPWSSVWSVALSGARMGPRS
3.71
CVLMTALNLRKRSVGMPFCW
4.67
GYNQLLTQGKPGYCFRISRV
-1.29
SKGNVV
0.709
RDDVRRVRPLGSVVQDDSDG
0.882

[Q] Recorded amyloid nucleation score of ICGYEACNNIGP , please.
[A] -1.12

[Q] Please do the same for TMNIKLWGAGTRRMFEMEPG as well.
[A] 2.35

====

# Test Summary: amyloid nucleation score (Sup35N fusion, yeast selection) (log enrichment); library NNK3; higher = more nucleation; inactive = no reads after selection
Measurement Kind: amyloid nucleation score

ERVNVVR
inactive
SMKGNSWF
inactive
QHSSLKWYLYDYRFLLYTVL
-0.562
LGSDTPLKCVLSTMRMLRTG
inactive

[Q] Recorded amyloid nucleation score of ECVCCRYYLVCGGPILRQDL , please.
[A] inactive

[Q] Please do the same for FNANINNNGIRFRREVNLCW as well.
[A] inactive

[Q] Please do the same for SYSQKKRHVSKSTGSRAWQA as well.
[A] inactive

[Q] Please do the same for PVRIEYQ as well.
[A] inactive

[Q] Please do the same for APIWVFRAYLVFL as well.
[A] inactive

[Q] Please do the same for KYCGLSRPIAFSPVVKKHLM as well.
[A] inactive

[Q] Please do the same for SYMLTFK as well.
[A] inactive

[Q] Please do the same for CSLQWFMV as well.
[A] inactive

[Q] Please do the same for TRKMLLVVSKYVMTPYGFGL as well.
[A] inactive

[Q] Please do the same for ALMRYVFPKWRDCAAMWDSL as well.
[A] inactive

[Q] Please do the same for DRCGVFNTPYLVNSELILC as well.
[A] inactive

====

Listing: amyloid nucleation score of selected substances
# Test Summary: amyloid nucleation score (Sup35N fusion, yeast selection) (log enrichment); library NNK1; higher = more nucleation; inactive = no reads after selection
Number only, please.

Consider the reported amyloid nucleation score for these substances:
FEYCCFSYEIVLELARFRGF
-0.535
AYFIYVMYG
-1.11
FLSYDMLYVKLT
2.44
DSWEYFLP
-0.375
YSALVFRYGVISKGDLVTRR
0.123
AWFSISTRRIAIAWVILPCN
-0.398

[Q] Recorded amyloid nucleation score of ASWFLVISTSLVYHSATADR , please.
[A] 0.211

====

# Test Summary: amyloid nucleation score (Sup35N fusion, yeast selection) (log enrichment); library NNK1; higher = more nucleation; inactive = no reads after selection
Measurement Kind: amyloid nucleation score

Consider the reported amyloid nucleation score for these sequences:
TEGYVFKCVGKMFLFRFSFA
-0.114
NLNTASQNIASLGLGALVLW
0.073

[Q] Recorded amyloid nucleation score of GAVCLGQIMCSRVPRDVNVK , please.
[A] -0.547

[Q] Please do the same for RFNTEKRLALNNNMPLRWFS as well.
[A] -0.125

[Q] Please do the same for IIYDLLCYSWRMFWL as well.
[A] 2.27

[Q] Please do the same for TCFVVLYTKMNVFECFDLQV as well.
[A] -0.109

====

# Test Summary: amyloid nucleation score (Sup35N fusion, yeast selection) (log enrichment); library NNK2; higher = more nucleation; inactive = no reads after selection
Assign class by amyloid nucleation score: not lower than 1 means Condition met; lower than 1 means Condition not met.

# example entries with known answers
SDVRLVLAASEIRYGAGCRW
Condition not met
ISSLLFVETELHSVFNLWWM
Condition not met
MRGVTLYDYFDGIRIWRPLR
Condition met
EVVNWSR
Condition not met

[Q] Check this substance for amyloid nucleation score at or above 1: CNIVPYRPINGWIPDVLLED
[A] Condition not met

[Q] Please do the same for LFALLK as well.
[A] Condition not met

[Q] Please do the same for WMIGRCD as well.
[A] Condition not met

[Q] Please do the same for CLWHWSNGRNVGKIYLFAVT as well.
[A] Condition not met

[Q] Please do the same for SFIWEYNMYYTGLGRITWMP as well.
[A] Condition not met

[Q] Please do the same for NDYLFIFHLFCLVSCLMNKW as well.
[A] Condition not met

[Q] Please do the same for RIYFGQIRGDW as well.
[A] Condition met

[Q] Please do the same for ISVVNSGCCCITTHPLRTYR as well.
[A] Condition met

====

Listing: amyloid nucleation score of selected substances
# Test Summary: amyloid nucleation score (Sup35N fusion, yeast selection) (log enrichment); library NNK1; higher = more nucleation; inactive = no reads after selection
Number only, please.

Consider the reported amyloid nucleation score for these substances:
QTEQMFGRVDIVYLPAIWSS
0.447
GLFKICYLVT
0.408
SDESKMCRMGYYLPALAIAW
-0.173
LHDQCLAHGQWCNTWGK
-0.022
VDDHDPKIGSMLPSIPNGVQ
-0.571
YMISNMVKVVFSSTDRNVGN
5.93
ASLLSGQK
0.358
RCMSDFRPVWVYVS
-0.222
TWIFVSLACKAL
-0.045
DSRGHGEPRRTWEW
-0.006

[Q] Recorded amyloid nucleation score of FRNIDTLLTVHCVSACR , please.
[A] -2.4

[Q] Please do the same for NCFRTSCKSGEWLQLFIRRG as well.
[A] 0.275

[Q] Please do the same for SFIIVYY as well.
[A] 1.84

[Q] Please do the same for AIQCSTARNDVECKLFTYVL as well.
[A] 0.086

[Q] Please do the same for DYSNERLTDGLRMGGTRVSG as well.
[A] 0.251

[Q] Please do the same for LDVSTRQRLVGVD as well.
[A] -0.2

[Q] Please do the same for EVILFNGLRMRAVPETWAST as well.
[A] 0.587

[Q] Please do the same for CRVPIRCRGDLLSLRAVRFR as well.
[A] 1.88

[Q] Please do the same for LHPVLALPAFNVDRNSMPC as well.
[A] -0.335

[Q] Please do the same for IMLLAWQLSKMSSFVCKSTR as well.
[A] 0.16

[Q] Please do the same for LGHGLDRMKLRTECNCTVVD as well.
[A] -0.503

[Q] Please do the same for RRWRTFLMRCKRNDTSKIRR as well.
[A] -1.36

[Q] Please do the same for HNSRWTRFRHLCSYITYGGC as well.
[A] -0.396

[Q] Please do the same for FFRMMKSLFQMRVRIDCRMG as well.
[A] -0.653

[Q] Please do the same for HGALMNNWDLKACFC as well.
[A] -0.786

[Q] Please do the same for WVILMMLCILRGRELSVAYW as well.
[A] -0.446

[Q] Please do the same for KYFIMCDIILCVVPVSYTGG as well.
[A] 3.87

[Q] Please do the same for KKKRRLSSWYSHPVPSSGLL as well.
[A] 0.488

====

# Test Summary: amyloid nucleation score (Sup35N fusion, yeast selection) (log enrichment); library NNK3; higher = more nucleation; inactive = no reads after selection
Measurement Kind: amyloid nucleation score

Consider the reported amyloid nucleation score for these substances:
EGKARGDH
inactive
MAFRETRWNFLLNKV
inactive
SDDKGVWLIMAGLCGIWSMY
2.33
FSWRCCFHKNNDCAKTILMF
inactive
LYIGQGSMIFFYSVVGFSAC
2.36
SSWSSRATLMLSSEVKSDMV
inactive

[Q] Recorded amyloid nucleation score of DSVYGMHGKTTFT , please.
[A] inactive

[Q] Please do the same for CWPESISVVYLQYCAGSMSL as well.
[A] inactive

[Q] Please do the same for RRAGNKWYVR as well.
[A] inactive

====

# Test Summary: amyloid nucleation score (Sup35N fusion, yeast selection) (log enrichment); library NNK1; higher = more nucleation; inactive = no reads after selection
Measurement Kind: amyloid nucleation score

Consider the reported amyloid nucleation score for these substances:
QWCSRRDMCFRSSVILCLWR
-0.035
WSARHKHNTKCYFVRGQ
-0.081
SVVMHSWLLLIVTSGSFMYV
0.218
FEECLM
-0.059
TRTGSRHPWRCLSDIASCNG
0.466

[Q] Recorded amyloid nucleation score of ESTLNRVRVTALETVQQCLS , please.
[A] 0.275

[Q] Please do the same for GVMSTDPFLTLYTVLVGVLI as well.
[A] inactive

[Q] Please do the same for KAIRMLFSVMIVKR as well.
[A] inactive

[Q] Please do the same for KRFSKDLLMAESDLCIGCMM as well.
[A] -0.817

====

# Test Summary: amyloid nucleation score (Sup35N fusion, yeast selection) (log enrichment); library NNK1; higher = more nucleation; inactive = no reads after selection
Listing: amyloid nucleation score of selected sequences

Consider the reported amyloid nucleation score for these sequences:
AQQLGMMGVGFMQRWNCRF
-1.74
RSTYVCKIRVRMIYVDVKCS
0.596
LFGLNWYNNGGRKSGCSDWA
-0.503
VSESDKEGLEK
-1.17
HCNIMIDSTSLFNGGLVFYN
4.83

[Q] Recorded amyloid nucleation score of VKTHSVFSMMVV , please.
[A] 0.558

[Q] Please do the same for IALSTYCRNTDSPSSSGSCY as well.
[A] -0.245

[Q] Please do the same for GNALRMVWERTQGTLPEYRR as well.
[A] 0.219

[Q] Please do the same for HRISASTLCVIMALRFTSWR as well.
[A] 1.42
